Target: human Claudin-6 (CLDN6) (human) (UniProt P56747)
Test: FACS, 1.5 ug Ab, ARK2 cells (2nd Ab only 1351.21)
Label satisfied when FACS fluorescence >= 10000; otherwise not satisfied.

Say whether AB3-5 (antibody, V domains shown, humanized) VH: EVQLLESGGGLVQPGGSMRLSCAASGFTFSNYWMNWVRQAPGKGLEWVAQIRLKSDNYATHYADSVKGRFTISRDDSKNTVYLQMNSLRAEDTGVYYCNDGPPSGYWGQGTLLTVSS VL: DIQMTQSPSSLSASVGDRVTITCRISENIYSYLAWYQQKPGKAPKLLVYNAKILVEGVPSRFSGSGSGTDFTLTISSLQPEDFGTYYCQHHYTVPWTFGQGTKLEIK shows FACS fluorescence of 10000 or more.
not satisfied

Say whether AB4-5 (antibody, V domains shown, humanized) VH: QVQLVQSGAEVKKPGASVKMSCKASGYTFTSYTMHWIRQAPGQGQEWIGYINPSSTYTHYAQKFQGRATLTADTSTSTAYMELSSLRSEDTAVYYCSRGELGGFAYWGQGTLVTVSS VL: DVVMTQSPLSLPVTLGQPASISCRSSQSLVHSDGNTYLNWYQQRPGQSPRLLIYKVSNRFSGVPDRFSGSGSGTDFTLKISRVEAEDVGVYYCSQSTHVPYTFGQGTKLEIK shows FACS fluorescence of 10000 or more.
not satisfied

Say whether AB1-7 (antibody, V domains shown, humanized) VH: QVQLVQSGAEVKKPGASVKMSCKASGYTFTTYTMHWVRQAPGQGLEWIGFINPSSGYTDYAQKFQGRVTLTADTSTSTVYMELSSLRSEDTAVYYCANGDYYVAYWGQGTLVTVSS VL: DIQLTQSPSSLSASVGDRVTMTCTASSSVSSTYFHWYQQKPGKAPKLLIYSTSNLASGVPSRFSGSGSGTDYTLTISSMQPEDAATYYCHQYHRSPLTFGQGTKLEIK shows FACS fluorescence of 10000 or more.
satisfied

Say whether AB3-3 (antibody, V domains shown, humanized) VH: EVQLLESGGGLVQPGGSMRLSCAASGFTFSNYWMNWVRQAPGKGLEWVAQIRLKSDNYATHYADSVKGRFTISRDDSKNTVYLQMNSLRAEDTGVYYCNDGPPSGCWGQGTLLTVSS VL: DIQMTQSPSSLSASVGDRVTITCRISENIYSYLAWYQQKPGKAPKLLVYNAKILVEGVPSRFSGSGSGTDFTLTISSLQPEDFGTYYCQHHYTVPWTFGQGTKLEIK shows FACS fluorescence of 10000 or more.
satisfied

Say whether AB1-5 (antibody, V domains shown, humanized) VH: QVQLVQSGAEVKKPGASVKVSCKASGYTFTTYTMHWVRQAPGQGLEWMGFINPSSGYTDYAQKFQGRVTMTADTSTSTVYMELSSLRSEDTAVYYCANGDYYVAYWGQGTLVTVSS VL: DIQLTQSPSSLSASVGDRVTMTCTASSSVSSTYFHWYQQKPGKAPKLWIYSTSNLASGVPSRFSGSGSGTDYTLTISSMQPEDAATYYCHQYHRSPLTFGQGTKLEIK shows FACS fluorescence of 10000 or more.
satisfied

Say whether AB11-3 (antibody, V domains shown, humanized) VH: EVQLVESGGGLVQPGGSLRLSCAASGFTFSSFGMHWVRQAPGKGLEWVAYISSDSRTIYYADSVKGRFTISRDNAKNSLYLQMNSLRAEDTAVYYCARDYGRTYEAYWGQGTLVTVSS VL: DIVLTQSPDSLAVSLGERATINCRASKSVSTSGYSYIHWYQQKPGQPPKLLIYLASNLESGVPDRFSGSGSGTDFTLTISSVQAEDVAVYYCQHSRELPLTFGQGTKLELK shows FACS fluorescence of 10000 or more.
not satisfied

Say whether AB4-12 (antibody, V domains shown, humanized) VH: QVQLVQSGAEVKKPGASVKMSCKASGYTFTSYTMHWIRQAPGQGQEWIGYINPSSTYTHYIKKFKDRATLTADKSTSTAYMELSSLRSEDTAVYYCSRGELGGFAYWGQGTLVTVSS VL: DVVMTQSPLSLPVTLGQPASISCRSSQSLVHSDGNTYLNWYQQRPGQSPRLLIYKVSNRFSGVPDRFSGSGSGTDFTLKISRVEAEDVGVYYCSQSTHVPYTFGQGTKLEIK shows FACS fluorescence of 10000 or more.
satisfied

Say whether AB1-6 (antibody, V domains shown, humanized) VH: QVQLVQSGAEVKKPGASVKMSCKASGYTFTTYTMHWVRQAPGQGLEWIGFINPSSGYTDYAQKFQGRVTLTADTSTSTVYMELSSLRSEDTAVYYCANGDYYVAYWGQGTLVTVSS VL: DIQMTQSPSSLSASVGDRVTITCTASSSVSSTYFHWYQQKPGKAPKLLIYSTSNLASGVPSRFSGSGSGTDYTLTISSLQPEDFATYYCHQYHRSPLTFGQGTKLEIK shows FACS fluorescence of 10000 or more.
not satisfied

Say whether AB9-3 (antibody, V domains shown) VH: QVQLVQSGAEVKKPGASVKMSCKASGYRFTDYNMHWVRQAPGQGLEWIGYINPNNGGTNYAQKFQGRATLTVDTSTSTAYMELSSLRSEDTAVYYCARDYLYFFDCWGQGTLLTVSS VL: DIQMTQSPSSLSASVGDRVTITCLASQTIGTWLAWYQQKPGKAPKLLIYAAASLADGVPSRFSGSGSGTDFTFTISSLQPEDFVTYYCQQLYSIPRTFGQGTKLEIK shows FACS fluorescence of 10000 or more.
not satisfied
